Assay: in vitro
Details: human, hela cells, % viability
viability at 28.5 h, 10 µM vs 90%: less than gives YES; not less than gives NO.

Prompt: Lab log: compare recorded viability at 28.5 h, 10 µM with 90%; is it strictly lower for "COc1ccccc1C(=O)Nc1ccc2nc(SCC(=O)NC3CC3)sc2c1" ?
Completion: NO

Prompt: What do you get for "O=S(=O)(Nc1cccc2nonc12)c1ccccc1Br" ?
Completion: NO

Prompt: What do you get for "CCn1c(CNC(=O)c2cc(C(C)C)on2)nc2ccccc21" ?
Completion: NO

Next:
Prompt: Lab log: compare recorded viability at 28.5 h, 10 µM with 90%; is it strictly lower for "CCC1(CC)OC(NC23CC4CC(CC(O)(C4)C2)C3)=NC1=O" ?
Completion: NO
